assay_target: Methionine aminopeptidase (Escherichia coli K-12, UniProt P0AE18)
Sequence (P0AE18 whole entry): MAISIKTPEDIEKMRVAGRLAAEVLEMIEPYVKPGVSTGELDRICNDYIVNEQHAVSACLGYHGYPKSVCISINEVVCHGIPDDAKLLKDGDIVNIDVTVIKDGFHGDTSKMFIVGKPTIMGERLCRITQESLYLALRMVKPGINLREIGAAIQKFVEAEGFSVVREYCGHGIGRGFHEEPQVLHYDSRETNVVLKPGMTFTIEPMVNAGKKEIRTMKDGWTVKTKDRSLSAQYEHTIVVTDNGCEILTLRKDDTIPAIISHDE
assay_text: Inhibitory activity against Mn(II) form of Escherichia coli MetAP
observed_property: IC50 (µM)

Example entries and their recorded answers appear below.
structure_as_smiles | output_unit | IC50
O=C(O)c1ccc(-c2ccccc2CO)o1 | µM | 10
O=C(O)c1ccc(-c2cc([N+](=O)[O-])ccc2F)o1 | µM | 14.9
C=CCCOc1ccccc1-c1ccc(C(=O)O)o1 | µM | 3.65

[A] O=Cc1ccccc1-c1ccc(C(=O)O)o1
[B] OCc1ccc(-c2ccccc2Cl)o1
In: Parameter check: reported IC50 is higher for which label, A or B ? // return label of chosen record
Out: B
